- Subject of test: UAP56-UCM-1 fusion (Homo sapiens, UniProt Q13838 1-428+P82979:82-115, internal_change)
- Assay text: GCI; 1 mM ATP; RNA immobilized; GCI: 25 mM HEPES pH 7.9, 50 mM KCl, 1 mM MgCl2, 1 mM TCEP, 1 mM ATP, 25 C; AdML pull-down: 20 mM HEPES pH 7.9, 100 mM KCl, 2 mM MgCl2, 5% glycerol, 0.1% Igepal, 1 mM AMP-PNP, RT; unclamping: same with 40 mM KCl, 500 mM KCl washes
- Test conditions: protein: recombinant; tags: 10xHis; otherwise unlabelled; single strand
Experimental readout: Kd (nM)

[[record]]
binder = "UUUUUUUUUUUUUUU (ssRNA) [15U RNA]"
result_value = 270

